Biological target: recombinant human TDP2 (Homo sapiens, UniProt O95551)
Sequence (O95551 whole entry): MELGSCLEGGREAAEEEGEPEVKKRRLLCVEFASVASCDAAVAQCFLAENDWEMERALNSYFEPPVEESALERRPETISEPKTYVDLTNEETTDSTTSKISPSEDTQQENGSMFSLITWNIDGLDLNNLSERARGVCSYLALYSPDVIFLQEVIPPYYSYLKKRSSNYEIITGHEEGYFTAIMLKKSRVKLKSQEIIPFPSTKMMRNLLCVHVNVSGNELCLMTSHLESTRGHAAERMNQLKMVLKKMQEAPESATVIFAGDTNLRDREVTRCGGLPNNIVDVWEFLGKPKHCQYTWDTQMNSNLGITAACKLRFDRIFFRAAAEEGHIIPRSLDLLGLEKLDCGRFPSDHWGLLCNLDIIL
Test: Recombinant Tdp2 assay (gel-based, 18-mer ssDNA substrate)
Details: recombinant human TDP2, 25 pM, 15 min, room temperature; read-out: REC TDP2
endpoint.name: IC50

Some entries whose results are on file:
Cc1oc2c(c1C(=O)Nc1cccc(O)c1)C(=O)c1ncccc1C2=O: > 111 µM
Cc1oc2c(c1C(=O)Oc1ccccc1Cl)C(=O)c1ncccc1C2=O: 1 to 12 µM
C#Cc1cccc(OC(=O)c2c(C)oc3c2C(=O)c2ncccc2C3=O)c1: 37 to 111 µM

According to the records, this molecule Cc1oc2c(c1C(=O)Oc1cccnc1)C(=O)c1ncccc1C2=O displays IC50 of 1 to 12 µM

Input Cc1oc2c(c1C(=O)O)C(=O)c1ncccc1C2=O . Output IC50: 37 to 111 µM
